- assay.explanation: ovarian cancer cell viability with rucaparib, profiling panel, oncology-focused library, rucaparib conditional (AID 1508598)
- assay.setup: patient-derived ovarian cancer cells, CellTiter-Glo viability, 144 h; at 0.0195 µM; OCI-P5x cells; with rucaparib 20 µM; 100% = cells with rucaparib alone
Calls of active or inactive are those of the source.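 How the source made its calls: active means normalized viability below 100% at a tested concentration; inactive means the rest.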
The reply should be one of these categories: 1.0 = active, 0.0 = inactive

* Cn1cc(C2=C(c3ccc(Cl)cc3Cl)C(=O)NC2=O)c2ccccc21 | 1.0

Recorded test outcome, item CN(C)CCCn1cc(C2=C(c3c[nH]c4ccccc34)C(=O)NC2=O)c2ccccc21 0.0

Recorded test outcome, item O=C(O)c1ccc(-c2c[nH]c3ncc(-c4ccccc4)cc23)cc1C1CCCC1 1.0

Origin of measurements: PubChem BioAssay
